Origin of the recorded values: ChEMBL document CHEMBL3124869

assay overview: AUC in rat at 5 mg/kg, po
Format: ADME, organism-based
Parameters: dose 5 mg/kg, route oral
condition description: plasma
attribute measured: AUC (µM·h)
Numbers only, in µM·h.

Q: // lookup AUC for Cc1nc([C@](C)(O)CO)sc1-c1cnc(N)c(O[C@H](C)c2cc(F)ccc2-n2nccn2)c1
A: 2.87

* * *

target: ALK tyrosine kinase receptor (Homo sapiens, UniProt Q9UM73, L1196M)
Sequence (Q9UM73 19-1620 L1196M limits assumed): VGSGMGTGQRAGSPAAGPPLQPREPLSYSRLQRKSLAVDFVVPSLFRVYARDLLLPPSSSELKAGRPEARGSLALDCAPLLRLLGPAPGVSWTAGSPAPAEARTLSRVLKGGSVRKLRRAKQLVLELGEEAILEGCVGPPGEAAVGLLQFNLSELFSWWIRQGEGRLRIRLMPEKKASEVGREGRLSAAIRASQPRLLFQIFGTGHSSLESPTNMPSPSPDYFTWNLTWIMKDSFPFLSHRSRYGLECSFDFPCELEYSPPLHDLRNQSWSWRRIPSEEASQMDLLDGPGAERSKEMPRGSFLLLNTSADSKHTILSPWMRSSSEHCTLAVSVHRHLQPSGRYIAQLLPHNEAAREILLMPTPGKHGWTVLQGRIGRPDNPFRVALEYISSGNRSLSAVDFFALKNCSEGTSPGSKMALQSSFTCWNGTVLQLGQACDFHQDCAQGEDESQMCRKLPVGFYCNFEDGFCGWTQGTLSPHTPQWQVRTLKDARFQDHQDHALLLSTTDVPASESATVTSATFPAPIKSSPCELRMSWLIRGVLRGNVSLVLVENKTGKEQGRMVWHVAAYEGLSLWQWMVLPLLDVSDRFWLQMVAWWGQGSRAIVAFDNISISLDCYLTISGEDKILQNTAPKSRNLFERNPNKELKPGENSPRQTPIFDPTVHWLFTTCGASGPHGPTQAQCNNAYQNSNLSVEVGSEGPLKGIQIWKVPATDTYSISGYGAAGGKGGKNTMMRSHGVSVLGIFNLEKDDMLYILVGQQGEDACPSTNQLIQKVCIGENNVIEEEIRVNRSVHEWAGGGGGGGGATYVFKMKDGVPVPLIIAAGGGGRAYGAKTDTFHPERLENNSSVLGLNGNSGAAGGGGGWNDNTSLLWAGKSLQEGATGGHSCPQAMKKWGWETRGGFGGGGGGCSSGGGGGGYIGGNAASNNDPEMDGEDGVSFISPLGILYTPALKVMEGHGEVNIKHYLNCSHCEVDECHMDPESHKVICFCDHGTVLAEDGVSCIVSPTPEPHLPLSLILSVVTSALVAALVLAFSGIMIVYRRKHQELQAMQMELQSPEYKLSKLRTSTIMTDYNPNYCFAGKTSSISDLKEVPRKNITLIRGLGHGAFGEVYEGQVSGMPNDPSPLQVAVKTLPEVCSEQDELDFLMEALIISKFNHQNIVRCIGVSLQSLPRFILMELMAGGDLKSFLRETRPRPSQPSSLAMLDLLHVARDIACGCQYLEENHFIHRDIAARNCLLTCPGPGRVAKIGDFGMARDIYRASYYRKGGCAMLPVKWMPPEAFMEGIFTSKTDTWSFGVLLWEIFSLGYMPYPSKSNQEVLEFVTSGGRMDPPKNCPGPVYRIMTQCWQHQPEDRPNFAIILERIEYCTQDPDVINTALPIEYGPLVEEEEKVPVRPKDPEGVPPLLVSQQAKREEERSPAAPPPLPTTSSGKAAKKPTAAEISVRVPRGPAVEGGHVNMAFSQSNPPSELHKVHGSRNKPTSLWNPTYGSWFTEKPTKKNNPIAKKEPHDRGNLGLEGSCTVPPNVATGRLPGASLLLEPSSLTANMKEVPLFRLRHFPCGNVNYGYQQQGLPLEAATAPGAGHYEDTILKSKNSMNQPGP
attribute measured: IC50 (nM)
Give bare numbers, in nM.

Q: // lookup IC50 for C[C@@H](Oc1cc(-c2cnn(C3CCNCC3)c2)cnc1N)c1cc(F)ccc1Cl
A: 387

* * *

assay overview: Volume of distribution at steady state in rat at 1 mg/kg, iv
Assay type: ADME, organism-based
Parameters: dose 1 mg/kg, route intravenous
condition description: in vivo, read-out: Vdss
attribute measured: Vd (L/kg)
One number for each entry, in L/kg.

Q: // lookup Vd for Cc1nc([C@](C)(O)CO)sc1-c1cnc(N)c(O[C@H](C)c2cc(F)ccc2-n2nccn2)c1
A: 2

* * *

assay overview: in vitro
condition description: dog, MDCK
Description: Intrinsic absorptive permeability from apical to basolateral side of dog RRCK cells
attribute measured: Papp A→B (×10⁻⁶ cm/s)
One number for each entry, in ×10⁻⁶ cm/s.

# annotated cases, reported Papp A→B shown
Q: // lookup Papp A→B for Cc1nccn1-c1cnc(N)c(O[C@H](C)c2cc(F)ccc2-n2nccn2)c1
A: 21

Q: // lookup Papp A→B for Cc1n[nH]cc1-c1cnc(N)c(O[C@@H](C)c2cc(F)ccc2C#N)c1
A: 20

Q: // lookup Papp A→B for Cc1nc(C2(O)CCS(=O)(=O)C2)sc1-c1cnc(N)c(O[C@H](C)c2cc(F)ccc2-n2nccn2)c1 (some centres undefined)
A: 14

Q: // lookup Papp A→B for Cc1nc(C2(O)CCOC2)sc1-c1cnc(N)c(O[C@H](C)c2cc(F)ccc2-n2nccn2)c1 (single isomer, unassigned)
A: 21

Q: // lookup Papp A→B for COc1ncccc1-c1cnc(N)c(O[C@H](C)c2cc(F)ccc2-n2nccn2)c1
A: 14

Record Papp A→B for all entries; do not skip any.
1. Cc1n[nH]cc1-c1cnc(N)c(O[C@H](C)c2cc(F)ccc2-n2nccn2)c1
2. Cc1n[nH]cc1-c1cnc(N)c(O[C@H](C)c2cc(F)ccc2F)c1
3. Cc1nc([C@@](C)(O)CO)sc1-c1cnc(N)c(O[C@H](C)c2cc(F)ccc2-n2nccn2)c1

A:
[21, 18, 17]

Q: // lookup Papp A→B for Cc1nc(C2(O)CN(C)C2)sc1-c1cnc(N)c(O[C@H](C)c2cc(F)ccc2-n2nccn2)c1
A: 3.4

* * *

assay overview: in vitro
condition description: human, liver microsomes
Description: Apparent total intrinsic clearance in human liver microsomes
Please respond with rule met when measured CLint scaled is strictly beneath 30 mL/min/kg, and with rule not met in all other cases.

Q: Is CLint scaled strictly under 30 mL/min/kg for the entry Cc1nc(C2(O)CN(C)C2)sc1-c1cnc(N)c(O[C@H](C)c2cc(F)ccc2-n2nccn2)c1 ?
A: rule not met

Q: Is CLint scaled strictly under 30 mL/min/kg for the entry C[C@@H](Oc1cc(-c2cnn(C3CCNCC3)c2)cnc1N)c1cc(F)ccc1Cl ?
A: rule met

Others:
Q: Is CLint scaled strictly under 30 mL/min/kg for the entry C[C@@H](Oc1cc(-c2cnnn2C)cnc1N)c1cc(F)ccc1-n1nccn1 ?
A: rule met

Q: Is CLint scaled strictly under 30 mL/min/kg for the entry Cc1n[nH]cc1-c1cnc(N)c(O[C@H](C)c2cc(F)ccc2F)c1 ?
A: rule not met

* * *

target: Leukocyte tyrosine kinase receptor (Homo sapiens, UniProt P29376)
Sequence (P29376 whole entry): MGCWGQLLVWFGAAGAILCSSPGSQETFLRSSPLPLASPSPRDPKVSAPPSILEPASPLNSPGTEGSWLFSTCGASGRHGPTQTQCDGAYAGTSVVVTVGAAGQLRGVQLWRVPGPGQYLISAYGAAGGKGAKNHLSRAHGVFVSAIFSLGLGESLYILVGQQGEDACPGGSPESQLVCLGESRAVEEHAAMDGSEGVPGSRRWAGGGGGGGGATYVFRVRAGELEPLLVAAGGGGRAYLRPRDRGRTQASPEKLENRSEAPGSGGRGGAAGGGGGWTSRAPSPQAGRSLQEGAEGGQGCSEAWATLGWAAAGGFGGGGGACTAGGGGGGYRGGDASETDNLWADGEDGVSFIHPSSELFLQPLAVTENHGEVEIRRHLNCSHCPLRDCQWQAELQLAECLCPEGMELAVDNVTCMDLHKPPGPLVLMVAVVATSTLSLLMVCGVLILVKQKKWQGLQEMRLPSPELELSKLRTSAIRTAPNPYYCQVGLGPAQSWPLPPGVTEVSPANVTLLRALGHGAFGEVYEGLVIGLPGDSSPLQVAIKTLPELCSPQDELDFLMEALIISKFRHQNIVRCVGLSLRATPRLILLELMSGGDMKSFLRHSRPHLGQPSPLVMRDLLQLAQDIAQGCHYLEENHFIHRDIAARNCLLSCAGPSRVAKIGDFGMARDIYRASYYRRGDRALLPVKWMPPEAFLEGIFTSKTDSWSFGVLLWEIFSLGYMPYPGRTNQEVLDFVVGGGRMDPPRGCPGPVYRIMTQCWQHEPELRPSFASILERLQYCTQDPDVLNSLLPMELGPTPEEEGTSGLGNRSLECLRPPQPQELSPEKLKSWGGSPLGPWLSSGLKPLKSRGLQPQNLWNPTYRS
attribute measured: IC50 (nM)
One number for each entry, in nM.

Q: // lookup IC50 for Cc1nc([C@](C)(O)CO)sc1-c1cnc(N)c(O[C@H](C)c2cc(F)ccc2-n2nccn2)c1
A: 2

* * *

assay overview: Oral bioavailability in rat at 5 mg/kg
Format: ADME, organism-based
condition description: in vivo
attribute measured: bioavailability (%)
Answers are plain numbers, in %.

Q: // lookup bioavailability for Cc1nc([C@](C)(O)CO)sc1-c1cnc(N)c(O[C@H](C)c2cc(F)ccc2-n2nccn2)c1
A: 86

* * *

I'd be grateful if you could share measured Papp A→B for these entries.
assay overview: in vitro
condition description: dog, MDCK
One number for each entry, in ×10⁻⁶ cm/s.

# annotated cases, reported Papp A→B shown
Q: // lookup Papp A→B for C[C@@H](Oc1cc(-c2cn(C)nc2C#N)cnc1N)c1cc(F)ccc1-n1nccn1
A: 18

Q: // lookup Papp A→B for C[C@@H](Oc1cc(-c2cnn(C3CCNCC3)c2)cnc1N)c1cc(F)ccc1Cl
A: 2.3

Q: // lookup Papp A→B for C[C@@H](Oc1cc(-c2cnnn2C)cnc1N)c1cc(F)ccc1-n1nccn1
A: 24

Q: // lookup Papp A→B for COc1ccc(F)cc1[C@@H](C)Oc1cc(-c2c[nH]nc2C)cnc1N
A: 14

Q: // lookup Papp A→B for Cc1nn(C)cc1-c1cnc(N)c(O[C@H](C)c2cc(F)ccc2-n2nccn2)c1
A: 27

Q: // lookup Papp A→B for COc1ncncc1-c1cnc(N)c(O[C@H](C)c2cc(F)ccc2-n2nccn2)c1
A: 22

Record Papp A→B for all entries; do not skip any.
1. Cc1nc([C@](C)(O)CO)sc1-c1cnc(N)c(O[C@H](C)c2cc(F)ccc2-n2nccn2)c1
2. Cc1nc(C(C)(C)O)ccc1-c1cnc(N)c(O[C@H](C)c2cc(F)ccc2-n2nccn2)c1
3. Cc1nc(C(C)(C)O)sc1-c1cnc(N)c(O[C@H](C)c2cc(F)ccc2-n2nccn2)c1
4. C[C@@H](Oc1cc(-c2ccnn2C)cnc1N)c1cc(F)ccc1-n1nccn1

A:
[19, 14, 18, 22]

* * *

assay overview: Cmax in rat at 5 mg/kg, po
Format: ADME, organism-based
Set-up: dose 5 mg/kg, route oral
condition description: in vivo
attribute measured: Cmax (µM)
Answers are plain numbers, in µM.

Q: // lookup Cmax for Cc1nc([C@](C)(O)CO)sc1-c1cnc(N)c(O[C@H](C)c2cc(F)ccc2-n2nccn2)c1
A: 0.568

* * *

target: Tyrosine-protein kinase Fer (Homo sapiens)
Sequence (P16591 whole entry): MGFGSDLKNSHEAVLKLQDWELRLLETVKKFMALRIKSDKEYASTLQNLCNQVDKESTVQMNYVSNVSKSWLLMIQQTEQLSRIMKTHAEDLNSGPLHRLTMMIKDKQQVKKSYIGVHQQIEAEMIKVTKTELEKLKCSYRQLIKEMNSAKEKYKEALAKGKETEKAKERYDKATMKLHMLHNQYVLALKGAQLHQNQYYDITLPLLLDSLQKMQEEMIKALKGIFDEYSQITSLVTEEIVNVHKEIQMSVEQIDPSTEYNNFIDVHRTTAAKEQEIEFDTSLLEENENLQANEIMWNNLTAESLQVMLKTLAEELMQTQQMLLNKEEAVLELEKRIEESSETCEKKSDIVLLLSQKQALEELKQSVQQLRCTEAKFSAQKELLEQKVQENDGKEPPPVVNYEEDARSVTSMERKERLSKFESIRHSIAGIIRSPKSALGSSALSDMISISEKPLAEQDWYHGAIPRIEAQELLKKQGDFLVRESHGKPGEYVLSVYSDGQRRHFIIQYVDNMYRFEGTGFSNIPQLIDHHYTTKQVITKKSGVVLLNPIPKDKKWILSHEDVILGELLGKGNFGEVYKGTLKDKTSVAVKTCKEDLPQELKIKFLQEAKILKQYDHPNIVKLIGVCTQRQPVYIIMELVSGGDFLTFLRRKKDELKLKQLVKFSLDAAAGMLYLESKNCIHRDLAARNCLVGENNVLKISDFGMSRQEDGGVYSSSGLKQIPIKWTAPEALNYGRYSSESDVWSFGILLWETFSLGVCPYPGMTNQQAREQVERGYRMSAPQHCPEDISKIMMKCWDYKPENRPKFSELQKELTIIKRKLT
attribute measured: IC50 (nM)
One number for each entry, in nM.

Q: // lookup IC50 for Cc1nc([C@](C)(O)CO)sc1-c1cnc(N)c(O[C@H](C)c2cc(F)ccc2-n2nccn2)c1
A: 2

* * *

target: Tyrosine-protein kinase Fes/Fps (Homo sapiens)
Sequence (P07332 whole entry): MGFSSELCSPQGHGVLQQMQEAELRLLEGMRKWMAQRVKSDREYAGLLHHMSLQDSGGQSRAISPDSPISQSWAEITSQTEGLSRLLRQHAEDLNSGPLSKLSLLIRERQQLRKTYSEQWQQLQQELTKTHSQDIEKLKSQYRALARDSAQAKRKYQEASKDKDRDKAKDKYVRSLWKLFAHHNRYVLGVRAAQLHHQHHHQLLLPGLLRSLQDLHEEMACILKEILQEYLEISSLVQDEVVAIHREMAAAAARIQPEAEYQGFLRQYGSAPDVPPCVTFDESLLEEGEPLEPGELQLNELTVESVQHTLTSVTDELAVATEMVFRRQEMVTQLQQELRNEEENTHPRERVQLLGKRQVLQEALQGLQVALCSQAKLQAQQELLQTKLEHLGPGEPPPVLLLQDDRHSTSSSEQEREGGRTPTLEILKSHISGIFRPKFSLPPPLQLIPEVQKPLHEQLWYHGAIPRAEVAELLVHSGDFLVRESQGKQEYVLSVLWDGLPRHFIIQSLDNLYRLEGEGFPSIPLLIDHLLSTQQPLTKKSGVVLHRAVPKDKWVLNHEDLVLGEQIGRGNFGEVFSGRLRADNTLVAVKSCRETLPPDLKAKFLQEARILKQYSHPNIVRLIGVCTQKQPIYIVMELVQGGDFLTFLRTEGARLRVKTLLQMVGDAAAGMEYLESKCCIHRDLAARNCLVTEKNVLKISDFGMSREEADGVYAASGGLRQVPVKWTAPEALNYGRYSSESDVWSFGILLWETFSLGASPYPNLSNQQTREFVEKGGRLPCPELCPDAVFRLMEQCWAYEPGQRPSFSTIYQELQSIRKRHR
attribute measured: IC50 (nM)
One number for each entry, in nM.

Q: Which measured IC50 belongs to Cc1nc([C@](C)(O)CO)sc1-c1cnc(N)c(O[C@H](C)c2cc(F)ccc2-n2nccn2)c1 , tested on Tyrosine-protein kinase Fes/Fps (Homo sapiens)?
A: 5

* * *

assay overview: physchem
condition description: octanol/water, pH 7.4
Outcome: 1 (yes) for logD of at least 3; 0 (no) for anything lower.

Q: Record Cc1nc(C2(O)CCOC2)sc1-c1cnc(N)c(O[C@H](C)c2cc(F)ccc2-n2nccn2)c1 (single isomer, unassigned) ; criterion: logD no lower than 3. Met?
A: 1 (yes)

Q: Record C[C@@H](Oc1cc(-c2cnn(C3CCNCC3)c2)cnc1N)c1cc(F)ccc1Cl ; criterion: logD no lower than 3. Met?
A: 0 (no)

Q: Record Cc1nc(C2(O)CN(C)C2)sc1-c1cnc(N)c(O[C@H](C)c2cc(F)ccc2-n2nccn2)c1 ; criterion: logD no lower than 3. Met?
A: 0 (no)

Q: Record C[C@@H](Oc1cc(-c2ccnn2C)cnc1N)c1cc(F)ccc1-n1nccn1 ; criterion: logD no lower than 3. Met?
A: 1 (yes)

Others:
Q: Record Cc1nn(C)cc1-c1cnc(N)c(O[C@H](C)c2cc(F)ccc2-n2nccn2)c1 ; criterion: logD no lower than 3. Met?
A: 1 (yes)

Q: Record Cc1nc(C(C)(C)O)ccc1-c1cnc(N)c(O[C@H](C)c2cc(F)ccc2-n2nccn2)c1 ; criterion: logD no lower than 3. Met?
A: 1 (yes)

Q: Record COc1ncncc1-c1cnc(N)c(O[C@H](C)c2cc(F)ccc2-n2nccn2)c1 ; criterion: logD no lower than 3. Met?
A: 1 (yes)

Q: Record Cc1nc([C@@](C)(O)CO)sc1-c1cnc(N)c(O[C@H](C)c2cc(F)ccc2-n2nccn2)c1 ; criterion: logD no lower than 3. Met?
A: 0 (no)

Q: Record Cc1nc(C2(O)CCS(=O)(=O)C2)sc1-c1cnc(N)c(O[C@H](C)c2cc(F)ccc2-n2nccn2)c1 (some centres undefined) ; criterion: logD no lower than 3. Met?
A: 1 (yes)

* * *

target: BDNF/NT-3 growth factors receptor (Homo sapiens, UniProt Q16620)
Sequence (Q16620 whole entry): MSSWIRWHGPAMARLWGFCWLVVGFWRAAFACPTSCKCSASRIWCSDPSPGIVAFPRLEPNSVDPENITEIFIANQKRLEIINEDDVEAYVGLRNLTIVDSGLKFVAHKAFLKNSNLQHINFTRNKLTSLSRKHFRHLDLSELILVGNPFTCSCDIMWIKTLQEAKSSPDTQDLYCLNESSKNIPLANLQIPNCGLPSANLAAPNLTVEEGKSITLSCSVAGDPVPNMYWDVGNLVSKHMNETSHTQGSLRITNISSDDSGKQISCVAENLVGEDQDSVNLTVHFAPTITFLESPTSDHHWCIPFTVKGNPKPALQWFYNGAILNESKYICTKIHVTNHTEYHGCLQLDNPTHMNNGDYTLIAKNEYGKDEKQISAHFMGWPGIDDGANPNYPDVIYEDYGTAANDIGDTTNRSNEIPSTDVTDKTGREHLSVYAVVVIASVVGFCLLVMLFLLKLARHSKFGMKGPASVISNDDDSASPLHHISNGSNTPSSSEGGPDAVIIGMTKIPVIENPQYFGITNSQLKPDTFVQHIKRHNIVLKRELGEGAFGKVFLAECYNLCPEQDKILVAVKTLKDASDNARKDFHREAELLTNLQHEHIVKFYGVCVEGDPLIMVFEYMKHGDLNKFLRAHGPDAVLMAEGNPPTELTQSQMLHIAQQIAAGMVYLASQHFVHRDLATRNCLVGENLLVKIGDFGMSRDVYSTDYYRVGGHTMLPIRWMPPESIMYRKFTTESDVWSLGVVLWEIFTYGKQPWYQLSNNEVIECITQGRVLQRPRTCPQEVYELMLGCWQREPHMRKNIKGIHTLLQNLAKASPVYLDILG
attribute measured: IC50
Answer format: value, then unit.

Q: // lookup IC50 for Cc1nc([C@](C)(O)CO)sc1-c1cnc(N)c(O[C@H](C)c2cc(F)ccc2-n2nccn2)c1
A: 4 nM

* * *

assay overview: Tmax in rat at 5 mg/kg, po
Format: ADME, organism-based
Set-up: dose 5 mg/kg, route oral
condition description: in vivo
attribute measured: Tmax (h)
Give bare numbers, in h.

Q: // lookup Tmax for Cc1nc([C@](C)(O)CO)sc1-c1cnc(N)c(O[C@H](C)c2cc(F)ccc2-n2nccn2)c1
A: 1.3
